assay_remarks: Cmax po dosed in human co-treated with rifampin
Assay type: ADME, organism-based
Set-up: route oral
assay_conditions: in vivo
quantity_kind: Cmax

Asked: Requested field: Cmax. Item: CCC[C@@H]1C[C@@H](C(=O)N[C@@H]([C@H]2O[C@H](SC)[C@H](O)[C@@H](O)[C@H]2O)[C@H](C)Cl)N(C)C1 [CLINDAMYCIN]
Given back: < 2500 ng/mL
